target: T1, human HSP90 protein 1 beta (HSPCB), two-hybrid fusion in pEG202 (human, UniProt P08238 1-724); test: two-hybrid; quantitative liquid beta-galactosidase assays; values as a percentage of the cdc6/TTC4 interaction; conditions: partners not purified
T1 construct: HSP90 protein 1 beta (HSPCB), human full length cDNA clone from Origene, cloned in the Not1 and Xho1 sites of pEG202; also called HuHSP90; huHSP90; source: yeast two-hybrid fusion
T1 sequence (P08238 whole entry, the tested form may be a part): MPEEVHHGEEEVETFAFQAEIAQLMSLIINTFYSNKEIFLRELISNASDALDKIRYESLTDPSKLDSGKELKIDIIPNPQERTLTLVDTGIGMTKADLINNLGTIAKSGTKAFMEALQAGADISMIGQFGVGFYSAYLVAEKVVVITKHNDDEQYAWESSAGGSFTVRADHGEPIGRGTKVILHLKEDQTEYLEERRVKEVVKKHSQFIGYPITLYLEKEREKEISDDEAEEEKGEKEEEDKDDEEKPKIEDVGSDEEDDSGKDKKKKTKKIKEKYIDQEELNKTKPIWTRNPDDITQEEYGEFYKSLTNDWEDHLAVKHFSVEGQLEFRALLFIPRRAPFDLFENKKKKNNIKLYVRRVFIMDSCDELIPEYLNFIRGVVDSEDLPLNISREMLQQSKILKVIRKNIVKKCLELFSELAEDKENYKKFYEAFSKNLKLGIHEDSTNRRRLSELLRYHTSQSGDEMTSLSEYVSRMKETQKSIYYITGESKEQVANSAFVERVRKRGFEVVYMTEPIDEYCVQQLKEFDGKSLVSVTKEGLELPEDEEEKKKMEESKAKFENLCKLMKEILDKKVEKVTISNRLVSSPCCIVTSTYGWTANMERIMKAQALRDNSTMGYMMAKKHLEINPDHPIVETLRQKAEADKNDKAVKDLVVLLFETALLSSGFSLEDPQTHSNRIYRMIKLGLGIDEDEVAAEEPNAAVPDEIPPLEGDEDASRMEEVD
Assignment: determine reported two-hybrid beta-galactosidase, percentage of the cdc6/TTC4 interaction for the given binders.
Return type: number; implicit unit %.

Looking for the measured two-hybrid beta-galactosidase, percentage of the cdc6/TTC4 interaction of TTC4-651-TA (217NK), two-hybrid fusion in pJG4.5 (natural protein, human, UniProt O95801 1-387, looked up, TTC4, human, with a point mutation reported in melanoma samples, made by site-directed mutagenesis in TTC4 (pJG4.5); also called TTC4 codon 217 N to K; source: yeast two-hybrid fusion) MEQPGQDPTSDDVMDSFLEKFQSQPYRGGFHEDQWEKEFEKVPLFMSRAPSEIDPRENPDLACLQSIIFDEERSPEEQAKTYKDEGNDYFKEKDYKKAVISYTEGLKKKCADPDLNAVLYTNRAAAQYYLGNFRSALNDVTAARKLKPCHLKAIIRGALCHLELKHFAEAVNWCDEGLQIDAKEKKLLEMRAKADKLKRIEQRDVRKANLKEKKERKQNEALLQAIKARNIRLSEAACEDEDSASEGLGELFLDGLSTENPHGARLSLDGQGRLSWPVLFLYPEYAQSDFISAFHEDSRFIDHLMVMFGETPSWDLEQKYCPDNLEVYFEDEDRAELYRVPAKSTLLQVLQHQRYFVKALTPAFLVCVGSSPFCKNFLRGRKVYQIR , can you help?
90

Looking for the measured two-hybrid beta-galactosidase, percentage of the cdc6/TTC4 interaction of TTC4-230AC (77EA), two-hybrid fusion in pJG4.5 (natural protein, human, UniProt O95801 1-387, looked up, TTC4, human, with a point mutation reported in melanoma samples, made by site-directed mutagenesis in TTC4 (pJG4.5); also called TTC4 codon 77 E to A; source: yeast two-hybrid fusion) MEQPGQDPTSDDVMDSFLEKFQSQPYRGGFHEDQWEKEFEKVPLFMSRAPSEIDPRENPDLACLQSIIFDEERSPEAQAKTYKDEGNDYFKEKDYKKAVISYTEGLKKKCADPDLNAVLYTNRAAAQYYLGNFRSALNDVTAARKLKPCHLKAIIRGALCHLELKHFAEAVNWCDEGLQIDAKEKKLLEMRAKADKLKRIEQRDVRKANLKEKKERNQNEALLQAIKARNIRLSEAACEDEDSASEGLGELFLDGLSTENPHGARLSLDGQGRLSWPVLFLYPEYAQSDFISAFHEDSRFIDHLMVMFGETPSWDLEQKYCPDNLEVYFEDEDRAELYRVPAKSTLLQVLQHQRYFVKALTPAFLVCVGSSPFCKNFLRGRKVYQIR , can you help?
75
